Test system: 327498-153-R-J2-PDC complex spheroid growth, % test/control
procedure_text: Anticancer human tumor 327498-153-R-J2-PDC patient-derived uterine carcinosarcoma cell line growth inhibition [Asc]
protocol_conditions: second compound 0.316 µM; first compound 0.000316 µM; stronger effect = lower value
measured_metric: viability, T/C (%)

| compound | value_observed |
| --- | --- |
| NC1CCC(NC2CC2c2ccccc2)CC1 (centres undefined) + CNC(C)C(=O)NC1CN(S(=O)(=O)c2cccc(S(=O)(=O)N3CCC4CCC(C(=O)NC(c5ccccc5)c5ccccc5)N4C(=O)C(NC(=O)C(C)NC)C3)c2)CCC2CCC(C(=O)NC(c3ccccc3)c3ccccc3)N2C1=O | 101 |
| NC1CCC(NC2CC2c2ccccc2)CC1 (centres undefined) + Cc1c(S(C)(=O)=O)c(-c2cc(F)cc(N3CCN(c4ccc(NS(=O)(=O)c5ccc(NC(CCN6CCC(C(=O)OCCCP(=O)(O)O)CC6)CSc6ccccc6)c(S(=O)(=O)C(F)(F)F)c5)cc4)CC3)c2)c(-c2ccc(Cl)cc2)n1C(C)C | 89.6 |
| Cn1ncnc1[C@H]1c2n[nH]c(=O)c3cc(F)cc(c23)N[C@@H]1c1ccc(F)cc1 + CNC(C)C(=O)NC1CN(S(=O)(=O)c2cccc(S(=O)(=O)N3CCC4CCC(C(=O)NC(c5ccccc5)c5ccccc5)N4C(=O)C(NC(=O)C(C)NC)C3)c2)CCC2CCC(C(=O)NC(c3ccccc3)c3ccccc3)N2C1=O | 100 |
| Cn1ncnc1[C@H]1c2n[nH]c(=O)c3cc(F)cc(c23)N[C@@H]1c1ccc(F)cc1 + Cc1c(S(C)(=O)=O)c(-c2cc(F)cc(N3CCN(c4ccc(NS(=O)(=O)c5ccc(NC(CCN6CCC(C(=O)OCCCP(=O)(O)O)CC6)CSc6ccccc6)c(S(=O)(=O)C(F)(F)F)c5)cc4)CC3)c2)c(-c2ccc(Cl)cc2)n1C(C)C | 92.6 |

* * *

System: 327498-153-R-J2-PDC complex spheroid growth, % test/control
procedure_text: Anticancer human tumor 327498-153-R-J2-PDC cell line growth inhibition [Asc];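 also: spheroids exposed to compound for 7 days after 3 days of growth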
protocol_conditions: curve of first compound; second compound 0.0949 µM

| molecule | IC50 |
| --- | --- |
| NC1CCC(NC2CC2c2ccccc2)CC1 (stereo not drawn) + CCN1C(C(=O)NC23CCC(C(=O)O)(CC2)CC3)C(c2cccc(Cl)c2F)C2(C(=O)Nc3cc(Cl)ccc32)C12CCCCC2 | > 100 nM |
| C#Cc1c(F)ccc2cc(O)cc(-c3ncc4c(N5CC6CCC(C5)N6)nc(OCC56CCCN5CC(F)C6)nc4c3F)c12 (stereo not drawn) + CCN1C(C(=O)NC23CCC(C(=O)O)(CC2)CC3)C(c2cccc(Cl)c2F)C2(C(=O)Nc3cc(Cl)ccc32)C12CCCCC2 | 709 nM |
| COc1c(OCCCN2CCOCC2)ccc2c3n(c(=NC(=O)c4cnc(N)nc4)nc12)CCN3 + CCN1C(C(=O)NC23CCC(C(=O)O)(CC2)CC3)C(c2cccc(Cl)c2F)C2(C(=O)Nc3cc(Cl)ccc32)C12CCCCC2 | 33.5 nM |

* * *

System: 327498-153-R-J2-PDC complex spheroid growth, % test/control
procedure_text: Anticancer human tumor 327498-153-R-J2-PDC cell line growth inhibition [Asc];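 also: spheroids exposed to compound for 7 days after 3 days of growth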;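 as to viability, T/C: 100% = DMSO vehicle control wells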
protocol_conditions: second compound 0.1 µM; first compound 0.00949 µM; stronger effect = lower value
The reader will find reported viability, T/C values listed item by item below.
measured_metric: viability, T/C (%)

| molecule | measured_metric | value_observed |
| --- | --- | --- |
| CCN1C(C(=O)NC23CCC(C(=O)O)(CC2)CC3)C(c2cccc(Cl)c2F)C2(C(=O)Nc3cc(Cl)ccc32)C12CCCCC2 (configuration not stated) + CNC(C)C(=O)NC1CN(S(=O)(=O)c2cccc(S(=O)(=O)N3CCC4CCC(C(=O)NC(c5ccccc5)c5ccccc5)N4C(=O)C(NC(=O)C(C)NC)C3)c2)CCC2CCC(C(=O)NC(c3ccccc3)c3ccccc3)N2C1=O | viability, T/C | 97.8 |
| Cc1nc(N2CCC3(CC2)COC(C)C3N)c(CO)nc1Sc1ccnc(N)c1Cl (configuration not stated) + Cc1c(S(C)(=O)=O)c(-c2cc(F)cc(N3CCN(c4ccc(NS(=O)(=O)c5ccc(NC(CCN6CCC(C(=O)OCCCP(=O)(O)O)CC6)CSc6ccccc6)c(S(=O)(=O)C(F)(F)F)c5)cc4)CC3)c2)c(-c2ccc(Cl)cc2)n1C(C)C | viability, T/C | 98.7 |

Values compiled from PubChem BioAssay AID1963424.
